Reference for the values: paper PMC12416549

- tested on: T1, TNFR1 (Homo sapiens, UniProt P19438)
- T1 chain: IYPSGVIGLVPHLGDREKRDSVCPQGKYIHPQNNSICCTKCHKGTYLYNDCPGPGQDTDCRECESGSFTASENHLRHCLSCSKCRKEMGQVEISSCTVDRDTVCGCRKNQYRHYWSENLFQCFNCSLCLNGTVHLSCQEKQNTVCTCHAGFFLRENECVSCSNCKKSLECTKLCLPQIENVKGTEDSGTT
- protocol notes: yeast display SC50
measurement kind: apparent Kd (screen) (nM)
Hi! Could you send only the number? It should be in nM, unit omitted.

Sample records with apparent Kd (screen):
[
  {
    "binder": "L3D (designed binder) MTDQELLREEALRRAEAEAFRYALELLAEKFPEQKEYLLDLAEEIESQIRSLSGVDVEDVRKFLDKEWAWVKELLAEHPAELAEVEAARAARLAELRAEVEAKVAA",
    "measurement kind": "apparent Kd (screen)",
    "scale unit": "nM",
    "numeric result": 0.718
  },
  {
    "binder": "V100A (designed binder) MTLQELLREEALRRAEAEAFRYALELLAEKFPEQKEYLLDLAEEIESQIRSLSGVDVEDVRKFLDKEWAWVKELLAEHPAELAEVEAARAARLAELRAEAEAKVAA",
    "measurement kind": "apparent Kd (screen)",
    "scale unit": "nM",
    "numeric result": 0.869
  },
  {
    "binder": "A106Y (designed binder) MTLQELLREEALRRAEAEAFRYALELLAEKFPEQKEYLLDLAEEIESQIRSLSGVDVEDVRKFLDKEWAWVKELLAEHPAELAEVEAARAARLAELRAEVEAKVAY",
    "measurement kind": "apparent Kd (screen)",
    "scale unit": "nM",
    "numeric result": 0.79
  }
]

Give the reported apparent Kd (screen) for this binder. L82W (designed binder) MTLQELLREEALRRAEAEAFRYALELLAEKFPEQKEYLLDLAEEIESQIRSLSGVDVEDVRKFLDKEWAWVKELLAEHPAEWAEVEAARAARLAELRAEVEAKVAA
0.956
